protocol: small-molecule microarray binders of probe aLefty2, primary screen, biochemical, biotinylated probe, 635/667 nm fluorescence (AID 1094);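 note: score merges spot fluorescence near 667 nm with spot signal-to-noise ratio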
assay setup: higher = more signal
# binning rule on composite z-score: 0: < -0.1; 1: ≥ -0.1 and < 0.1; 2: ≥ 0.1

// below: answered molecules
>  <molecule>
CN1C(=O)C2C=CC(C(O)c3ccco3)N(Nc3ccccc3)C2C1=O (stereo unspecified)

>  <class assignment>
1

$$$$
>  <molecule>
CC(C)[Si](C#Cc1ccc(Oc2ccccc2)cc1)(O[Si](C#Cc1ccc(Oc2ccccc2)cc1)(C(C)C)C(C)C)C(C)C

>  <class assignment>
0

$$$$
>  <molecule>
CC(C)C(CO)N1C(=O)[C@@H]2C3C(=O)OCCC/C=C\[C@H]3OC23C=CCN(CCN2CCOCC2)C(=O)[C@@H]13 (stereo partly specified)

>  <class assignment>
0

$$$$
>  <molecule>
O=C1C[C@@](C(=O)NCCN2CCOCC2)(c2ccc([N+](=O)[O-])cc2)[C@@H](c2ccc(CO)cc2I)N1CC12CC3CC(CC(C3)C1)C2

>  <class assignment>
0

$$$$
>  <molecule>
COCCOC(=O)N1C(=O)[C@@]2(c3cc(C#CCNC(N)=O)ccc31)[C@H](C(=O)Nc1nc3ccccc3s1)[C@H]1C(=O)O[C@H](c3ccccc3)[C@H](c3ccccc3)N1[C@@H]2c1ccc(OCCO)cc1

>  <class assignment>
2

$$$$
>  <molecule>
COc1ccc([Si](C)(C)[C@H]2[C@H](CCO)O[C@@]3(C(=O)N(Cc4ccc(N(C=O)c5ccccc5)cc4)c4ccccc43)[C@@H]2C)cc1

>  <class assignment>
0

$$$$
>  <molecule>
C=CC[C@]1(C(=O)NCc2ccccc2)N=C(c2ccc(OCCCO)cc2)O[C@H]1c1ccccc1N=[N+]=[N-]

>  <class assignment>
2

$$$$
>  <molecule>
Cc1ccc([C@@H]2C[C@@H](Sc3ccccc3)[C@H](C(=O)O)CN2S(=O)(=O)c2ccc(C)cc2)cc1

>  <class assignment>
2

$$$$

Each molecule maps to one class by composite z-score. Which class for `Cc1ccc(S[C@]2(C(=O)NC3CC3)CC(=O)N(Cc3ccccc3)[C@@H]2c2ccc(CO)cc2I)cc1` ?
1

Where would CC(C)c1ccc(NN2C(C(O)c3ccc(B(O)O)cc3)C=CC3C(=O)N(c4ccccc4)C(=O)C32)cc1 (stereo unspecified) land among the classes by reported composite z-score?
2

Band assignment needed for `CC(C)NC(=O)[C@@H]1c2ccccc2C(=O)N(C2Cc3ccccc3C2)[C@H]1c1ccc(CO)cc1` please.
1

Returns: class label. Input: `C=CC[C@@]12N=C(c3ccc(OCCCO)cc3)O[C@@H]1c1ccccc1N(C)C2=O`
2

Band assignment needed for `CC(C)=CCN[C@H](CO)c1ccccc1` please.
0

Category lookup for the molecule `CCCC[C@@H]1C[C@H]1[C@@H](NC(=O)c1ccccc1)c1ccc(C(=O)OC)cc1`
2

Which bin should I file CN1C=C(C(=O)OCCS(C)(=O)=O)C(C(=O)OCCS(C)(=O)=O)=CC(c2ccc(CO)cc2)=CC1C1CC1 (stereo unspecified) under?
0

* * *

tested on: NADPH oxidase 2 (Homo sapiens)
protocol: NOX2-dependent H2O2 signal modulators, primary screen, NOX inhibitor project, cell-based, HEK293-NOX2, PMA-stimulated, Amplex Red fluorescence (AID 1159); note: test concentration not given here
assay setup: 45 min, higher = more signal, called active from +8 up or from −8 down
Given measured z-score, output Y if it is greater than or equal to 0.7 and N if not.

>  <compound>
CC1(C)C2C=C(C(O)C3C=CC4C(=O)NC(=O)C4N3Nc3ccc(Cl)cc3Cl)C[C@@H]1C2 (stereo partly drawn)

>  <tested on>
NADPH oxidase 2 (Homo sapiens)

>  <class assignment>
N

$$$$
>  <compound>
COC(=O)[C@@]1(Cc2ccc(OC)cc2)[C@H]2c3cc(C(=O)N4CCCC4)n(Cc4ccc(O)c(OC)c4)c3C[C@H]2CN1C(=O)c1ccccc1

>  <tested on>
NADPH oxidase 2 (Homo sapiens)

>  <class assignment>
N

$$$$
>  <compound>
CC(C)NC(=O)[C@@]1(c2ccc([N+](=O)[O-])cc2)CC(=O)N(C2CCCCC2)[C@@H]1c1ccc(CO)cc1I

>  <tested on>
NADPH oxidase 2 (Homo sapiens)

>  <class assignment>
Y

$$$$
>  <compound>
Oc1ccc2cc[n+](Cc3sc4ccccc4c3Cl)cc2c1

>  <tested on>
NADPH oxidase 2 (Homo sapiens)

>  <class assignment>
N

$$$$
>  <compound>
C=CCNC(=O)[C@@H]1[C@H]2C(=O)O[C@H](c3ccccc3)[C@H](c3ccccc3)N2[C@H](c2ccccc2OCCO)[C@@]12C(=O)N(C(=O)OCCOC)c1ccccc12

>  <tested on>
NADPH oxidase 2 (Homo sapiens)

>  <class assignment>
Y

$$$$
>  <compound>
CCOC(=O)C[C@H]1[C@H](OC(=O)c2cc3ccccc3oc2=O)[C@@H](NC(=O)c2ccccc2)c2cc(OCCCO)ccc2N1C(=O)c1ccc2ccccc2n1

>  <tested on>
NADPH oxidase 2 (Homo sapiens)

>  <class assignment>
N

$$$$

Please tell me: is the compound `O=C(c1ccccc1)N1C(=O)[C@@]2(Cc3ccccc31)N=C(c1ccc(OCCCO)cc1)O[C@H]2c1ccccc1` at or over 0.7 in terms of z-score?
N

Hello, I need to know if `O=C(NCCO)C1=C[C@H](Oc2ccccc2I)[C@@H](O)[C@H](N(Cc2ccco2)C(=O)Cc2ccccc2)C1` has measured z-score not below 0.7. Thanks!
Y

Decide: is the reported value of z-score for `COCCOC(=O)N1C(=O)[C@@]2(c3cc(C#CCNC(N)=O)ccc31)[C@H](C(=O)N1CCN(c3ncccn3)CC1)[C@H]1C(=O)O[C@H](c3ccccc3)[C@H](c3ccccc3)N1[C@@H]2c1ccc(OCCO)cc1` equal to or greater than 0.7?
Y

Reported z-score reaches at least 0.7 for `COC(=O)C[C@H]1O[C@]2(C(=O)N(C)c3ccccc32)[C@@H](C)[C@@H]1[Si](C)(C)F` ?
N

Kindly determine if z-score recorded for `C=C(CCCC)/C(=C/C[C@H](OC(C)=O)c1ccccc1OCCO)c1cc(C(=O)OC)ccc1OC` is above or exactly 0.7.
N

Does z-score meet or surpass 0.7 for `CC(C)[Si]1(C(C)C)O[C@@H](c2ccccc2)c2cc(-c3ccc(-c4ccc(Cl)c(Cl)c4)o3)nc(-c3ccccc3)c21` ?
N

Please tell me: is the compound `O=C(NC1CC1)[C@@H]1c2ccccc2C(=O)N(Cc2ccccc2Cl)[C@H]1c1ccc(CO)cc1` at or over 0.7 in terms of z-score?
N

Entry `CC(C)N1C(=O)c2ccccc2[C@](C)(C(=O)NCCN2CCOCC2)[C@@H]1c1ccc(CO)cc1` : is its z-score no less than 0.7?
Y

Quick check, z-score >= 0.7? CC1CC/C=C\[C@H]2OC34C=CCN(C(C)(C)C)C(=O)[C@H]3N(CCO)C(=O)[C@@H]4C2C(=O)O1 (stereo partly drawn)
Y

Would you say `CN(C)CCCCCCNC(=O)[C@H]1C[C@H]2C(=O)N3CCC[C@H]3C(=O)N2[C@H]1c1ccc(O)cc1` shows z-score at minimum 0.7?
N

Tell me whether z-score is at least 0.7 here: `C=CCN1C(=O)[C@@]2(Cc3ccccc31)N=C(c1ccc(OCCCO)cc1)O[C@H]2c1ccccc1`
N

Quick check, z-score >= 0.7? `COC(=O)[C@@]1(Cc2ccccc2)[C@H]2c3cc(C(=O)N4CCCC4)n(Cc4ccc(S(C)(=O)=O)cc4)c3C[C@H]2CN1C(=O)c1ccccc1`
N

Is the recorded value of z-score equal to or greater than 0.7 for this compound? `C=C[C@H](CO[Si](CC)(CC)CC)N(Cc1ccc(OC(C)=O)c(OC)c1)S(=O)(=O)c1ccc(Br)cc1`
N

Please tell me: is the compound `COCCOC(=O)N1C(=O)[C@@]2(c3cc(C#CCC(C(=O)OC)C(=O)OC)ccc31)[C@H](c1ccccc1OCCO)N1[C@H](c3ccccc3)[C@H](c3ccccc3)OC(=O)[C@H]1[C@@H]2C(=O)NC[C@H](O)c1ccccc1` at or over 0.7 in terms of z-score?
Y

Determine whether this compound has z-score no lower than 0.7: `Cc1ccc([C@@H]2C[C@@H](Sc3ccccc3)[C@H](C(=O)O)CN2S(=O)(=O)c2ccc(C)cc2)cc1`
Y

Answer whether z-score of CCN(CC)c1ccc(N2CC=CC34O[C@@H]5C=CCCOC(=O)C5[C@H]3C(=O)N(CCCCCCO)[C@@H]4C2=O)cc1 (stereo partly drawn) is greater than or equal to 0.7.
N
